Origin of values: patent US10221163B2

molecular target: UniProt:C7C422; experiment: biochemical; format: biochemical; settings: fluorescence assay, CCF2-FA substrate, 1 pM enzyme, 2 hours at 25° C.; read-out: NDM-1 IC50
Sequence (C7C422 whole entry, looked up, species assumed): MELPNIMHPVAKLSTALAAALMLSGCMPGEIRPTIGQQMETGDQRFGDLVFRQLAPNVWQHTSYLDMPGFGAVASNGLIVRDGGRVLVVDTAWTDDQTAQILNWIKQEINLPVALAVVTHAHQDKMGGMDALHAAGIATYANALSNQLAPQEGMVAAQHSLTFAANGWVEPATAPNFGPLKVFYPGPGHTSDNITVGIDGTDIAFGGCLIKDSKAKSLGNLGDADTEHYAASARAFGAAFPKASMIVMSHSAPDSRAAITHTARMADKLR
pIC50: −log10 of the molar value.
Lab note: compare pIC50 against 10. Equal or greater, write Criterion met. Smaller, write Criterion not met.

Check if pIC50 >= 10 (inclusive). Item: Cn1c(N)nc2c(-c3ccc(S(=O)(=O)NC[C@H](O)CN)c(S(N)(=O)=O)c3-c3nn[nH]n3)cccc21 [Example 302]
Criterion met

* * *

molecular target: VIM-1 (Pseudomonas aeruginosa (strain ATCC 15692 / DSM 22644 / CIP 104116 / JCM 14847 / LMG 12228 / 1C / PRS 101 / PAO1), UniProt A0A0F7KYQ8); test: biochemical; details: fluorescence assay, CCF2-FA substrate, 30 pM enzyme, 2 hours at 25° C.; read-out: VIM-1 IC50
# reported pIC50; entries follow
Note on units: pIC50 is unitless, being -log10 of a concentration expressed in mol/L.

Give the measured pIC50 of Nc1ccc2cccc(-c3ccc(S(=O)(=O)N[C@@H]4CNC[C@@H]4N)c(S(N)(=O)=O)c3-c3nn[nH]n3)c2n1 [Example 319] .
9.69

* * *

tested on: Pseudomonas aeruginosa MB9798 vs MB9799; conditions: ratio MITC95 PA_9798/MITC95 PA_9799
Catalogue of Efflux ratio values
When you answer, write just the number.

Worked cases, answers included:
- COMPOUND: "NC[C@@H](O)CNS(=O)(=O)c1ccc(-c2cccc3[nH]cnc23)c(-c2nn[nH]n2)c1S(N)(=O)=O [Example 301]"
  Efflux ratio: 1.00
- COMPOUND: "Nc1ccc(-c2ccc(S(N)(=O)=O)c(S(N)(=O)=O)c2-c2nn[nH]n2)cn1 [Example 155]"
  Efflux ratio: 4.88
- COMPOUND: "NCCNS(=O)(=O)c1ccc(-c2cccc3nonc23)c(-c2nn[nH]n2)c1S(N)(=O)=O [Example 239]"
  Efflux ratio: 8.00
- COMPOUND: "NCc1nc2c(-c3ccc(S(=O)(=O)N[C@@H]4CCNC4)c(S(N)(=O)=O)c3-c3nn[nH]n3)cccc2[nH]1 [Example 283]"
  Efflux ratio: 1.00

Name the recorded Efflux ratio for Nc1nc2c(-c3ccc(S(=O)(=O)N4CC5(CCNC5)C4)c(S(N)(=O)=O)c3-c3nnn[nH]3)cccc2s1 [Example 48] .
1.00

Same again, this time with NC[C@H]1CCN(S(=O)(=O)c2ccc(-c3cccc4sc(N)nc34)c(-c3nnn[nH]3)c2S(N)(=O)=O)C1 [Example 74]
1.00

What do we get for Nc1ccc(-c2ccc(S(=O)(=O)NCCc3ncc[nH]3)c(S(N)(=O)=O)c2-c2nn[nH]n2)cn1 [Example 218] ?
15.99

Input NS(=O)(=O)c1c(S(=O)(=O)N[C@@H]2CCNC2)ccc(-c2cccc3nonc23)c1-c1nn[nH]n1 [Example 238]
4.00

Try the compound Nc1ccc(-c2ccc(S(=O)(=O)NC[C@@H]3CNCCN3)c(S(N)(=O)=O)c2-c2nn[nH]n2)cn1 [Example 312]
1.00

Param item: Nc1nc2c(-c3ccc(S(=O)(=O)N4CC[C@@H](F)[C@H](N)C4)c(S(N)(=O)=O)c3-c3nn[nH]n3)cccc2[nH]1 [Example 205]
8.00

Now the compound Nc1ncc(-c2ccc(S(=O)(=O)N[C@@H]3CNC[C@@H]3N)c(S(N)(=O)=O)c2-c2nn[nH]n2)s1 [Example 321]
2.00

Also, C[C@H](CN)NS(=O)(=O)c1ccc(-c2cncc(N)c2)c(-c2nn[nH]n2)c1S(N)(=O)=O [Example 221] please.
1.00

Now give it for NCCCNS(=O)(=O)c1ccc(-c2cccc3[nH]c(N)nc23)c(-c2nn[nH]n2)c1S(N)(=O)=O [Example 182] too.
0.80

Please do the same for CNc1ccc(-c2ccc(S(=O)(=O)N[C@@H]3CCNC3)c(S(N)(=O)=O)c2-c2nn[nH]n2)cn1 [Example 242] as well.
1.00

Now consider NS(=O)(=O)c1c(S(=O)(=O)N[C@H]2CCNC2)ccc(-c2cccc3[nH]cnc23)c1-c1nn[nH]n1 [Example 197] .
1.00

Thanks! And C[C@@H](N)CNS(=O)(=O)c1ccc(-c2cccc3[nH]c(N)nc23)c(-c2nn[nH]n2)c1S(N)(=O)=O [Example 185] ?
0.65

Please answer likewise for Nc1nc2c(-c3ccc(S(=O)(=O)N[C@]4(CO)CCNC4)c(S(N)(=O)=O)c3-c3nnn[nH]3)cccc2[nH]1 [Example 177]
0.50

Next record, please: Cn1c(N)nc2c(-c3ccc(S(=O)(=O)NC[C@H](O)CN)c(S(N)(=O)=O)c3-c3nn[nH]n3)cccc21 [Example 302]
1.00

Now consider CNc1ccc(-c2ccc(S(=O)(=O)NCCN)c(S(N)(=O)=O)c2-c2nn[nH]n2)cn1 [Example 243] and answer again.
1.00
